Every entry's value here was drawn from PubChem BioAssay (NCI).

# System: OVCAR-5 ovarian
# experiment: NCI-60 one-dose screen, 48 h
# measurement-parameters: 10 µM unless noted
Compounds without any hit were thinned out: in the full panel of roughly 83,000, 20% have a hit. The source made the active and inactive calls. Rule for the calls: active = growth percent below 10; inactive = the rest.
Would you mind answering with one of these outcomes? t = active, f = inactive

compound="CCN1C(=O)N(CC)C2C1NN=c1s/c(=C\\c3ccc(OC)cc3)c(=O)n12 (centres undefined)" discrete_label=f
compound=CC(C)(Sc1cc(C(C)(C)C)c(O)c(C(C)(C)C)c1)Sc1cc(C(C)(C)C)c(OC(=O)CCC(=O)O)c(C(C)(C)C)c1 discrete_label=f
compound=CN1CCOCCN(C)Cc2ccc3ccc(cc3c2)CN(C)CCOCCN(C)Cc2ccc3ccc(cc3c2)C1 discrete_label=f
compound="N#CC1=C(N)Oc2c(sc3c(F)cccc23)C1c1ccc([N+](=O)[O-])cc1 (centres undefined)" discrete_label=t
compound=O=C(Nc1cc(Cl)ccc1O)c1ccccc1Nc1ccnc(C(F)(F)F)c1 discrete_label=f

(Q) For CCCC(O)Cn1ncc(C(=O)OCC)c1NC(=O)NCc1cccc(C(F)(F)F)c1 (centres undefined) , what call appears in the results of this test?
(A) f

(Q) What was the test verdict on O=C(c1c[nH]c2ccccc12)c1n[nH]c(=S)n1-c1ccc([N+](=O)[O-])cc1 ?
(A) f

(Q) Kindly provide the recorded test outcome for the following compound: O=C(Nc1ccc(Nc2ccncc2)cc1)c1ccc(Nc2ccnc3ccc([N+](=O)[O-])cc23)cc1
(A) f

(Q) Check the results log: what was the call for COc1ccc(-c2nc3ccc(C)cc3c3c2c(=O)n(C)c(=O)n3C)cc1OC ?
(A) f
